System: NOMO1
protocol-summary: cell viability relative to DMSO control; higher = less cytotoxic
experimental-setup: RPMI 5 mM glucose + 10% FBS; 48 h; 0.569 µM
The following compounds are shown together with reported cell viability values.
assay-metric: cell viability (%)

| molecule | measured-target | measurement-units | endpoint-result |
| --- | --- | --- | --- |
| Cc1cc(O)c2c3c4c(cc(O)c13)C(C)(C)C(=O)c1c(O)cc(O)c(c1-4)C2=O | NOMO1 | % | 90.5 |
| CC(C)C[C@H](CN)CC(=O)O | NOMO1 | % | 99.3 |
| COC1=CC=C2Nc3cc(Cl)ccc3C(N=C3C=C(CN4CCCC4)C(=O)C(CN4CCCC4)=C3)=C2N1 | NOMO1 | % | 125 |
| Clc1ccc(C2(c3ccc(-c4cn[nH]c4)cc3)CCNCC2)cc1 | NOMO1 | % | 98.9 |
| C[C@H](NC(=O)C(=O)Nc1ccccc1C(C)(C)C)C(=O)N[C@@H](CC(=O)O)C(=O)COc1c(F)c(F)cc(F)c1F | NOMO1 | % | 131 |
| COc1cc(N2CCC(O)CC2)ccc1Nc1cc(Nc2ccccc2[S+](=O)([O-])C(C)C)c2cc[nH]c2n1 | NOMO1 | % | 92.4 |
| C#Cc1cccc(Nc2ncnc3cc(OCCOC)c(OCCO)cc23)c1 | NOMO1 | % | 112 |
